Data provenance is the nanobody polyreactivity screen of Harvey et al. (2022).

test: yeast display, Sf9 membrane polyspecificity reagent, FACS + sequencing; frameworks hold sequencing errors
measured-attribute: polyreactivity (PSR sort gate)

Previously resolved entries follow.
Recorded polyreactivity (PSR sort gate) of QVQLVESGGGLVQAGGSLRLSCAASGRIFTRYAIGWYRQAPGKERELVAAITYNGGSTYYADSVKGRFTISRDNAKNTVYLQMNSLKPEDTAVYDCNAVYLSWFGLFAGFDYWGQGTQVTVSS , please. high polyreactivity

Please give the result for QDQLVESGGGLVQAGGSLRLSCAASGINFKYYAMGWYRQAPGKERELVAAISRSGSSTYYADSVKGRFTISRDNAKNTVYLQMNSLIPEDTSVYYCADQPYDSNYGNSGYWGQGTQVTVSS too. high polyreactivity

Please give the result for QVQLVESGGGLVQAGGSLRLSCAASGRIFVVNAMGWYRQAPGKERELVAAISSSSDSTYYADSVKGRFTISRDNAKNTVYLQMNSLKPEDTAVFYCAADYHYDGYWIYDYWGQGTQVTVSS too. high polyreactivity

Please give the result for QVQLVESGGGLVQAGGSLRLSCAASGRIFKAYAMGWYRQAPGKERELVAVITGTGRTTYADSVKGRFTISRDNAKNTVYLQMNSLKPEDTAVYYCNVRWYYKGDYWGQGTLVTVSS too. high polyreactivity

Please give the result for QVQLVESGGGLVQAGGSLRLSCAASGIIFASNGMGWSRQPPGKERELVAAISSGGSTNYADSVKGRFTISRDNAKNTVYLQMNSLKPEDTAVYYCAAVRWYREYDYWGQGTQVTVSS too. low polyreactivity

Further cases:
Recorded polyreactivity (PSR sort gate) of QVQLVESGGGLVQAGGSLRLSCAASGITFYGYDKGWYRQAPGKERELGAAITSDGITNYADSVKGRFTISRDNAKNTVYLQMNSLKPEDTAVYYCAADLSFYRRYEWYYYWGQGTQVTVSS , please. low polyreactivity

Please give the result for QVQLVESGGGLVLAGGSLRLSCAASGHIFFYYTMGWYRQSPGKERELVAGITIGGSTNYADSVKGLFTISRDNAKNTVYLQMISLKPEDTAVYYCNVVKYVYIYSYWEYYYWGQGTQVTVSS too. low polyreactivity

Please give the result for QVQLVESGGGLVQAGGSLRLSCAASGSTFRHNVMGWYRQAPGKERELVAAISYSGGSTHYADSVKGRFTISRDNAKNTVYLQMNSLKPEDTAVYYCNRYSYDSHFLYPFRGHDYWGQGTQVTVSS too. low polyreactivity

Please give the result for QDQLVESGGGSVQAGGSLRLSCAAYGRIYILYAMGWYRQAPGQERELVAAISWSGGSTYYADSVKGRFTISRDNAKKTVDGQRNSLKPEYTAVYYCNVVSKYKHTYDFDYWGQGTQVNVSS too. high polyreactivity

Please give the result for QDQLVESGGGLVQAGGSLRLSCAASGFNFSPNAMGWYRQAPGKERELVAAIDWSGDRTYYADSVKGRFTISRDNAKNTVYLEMNSLKPEDTSVYYCNVVRRSTGEYSFYYWGQGTQVTVSS too. low polyreactivity

Please give the result for QVQHVESRGGLVQAGGSLRLSCAASGRTFVRYAMGWYRQAPGKERELVAAISGDGASTYYADSVKGRFTISRDNAMNTVYLQMNSLKPEDTAVYYCNARSIRRYYYPDYDYWGQGTQVTVSS too. high polyreactivity

----------
assay: yeast display, Sf9 membrane polyspecificity reagent, FACS + sequencing; frameworks hold sequencing errors
measured-attribute: polyreactivity (PSR sort gate)

Previously resolved entries follow.
Recorded polyreactivity (PSR sort gate) of QVQLVESGGGLVQAGGSLRLSCGASGSIFYGYAMGWYRQAPGKERELVASITYSGGSTYYADSVKGRFTISRDNAKNTVYLQMNSLKPEDTTVYYCAVIGYHYSAISPASQTRQGYDYWGQGTQVTVSS , please. low polyreactivity

Please give the result for QVQLVESGGGLVQAGGSLRLSCAASGRIFYDYTMGWYRQAPGKERELVAAINSGGGSTYYADSVKGRFTISRDNAKNTVYLQMNSLKPEDTAVYYCNADGQWNIWEYDYWGQGTQVTVSS too. high polyreactivity

Please give the result for QVQLVESGGGLVQAGGSLRLSCPASGSTFLFNAMGWYRQAPGKERELVAAIRSDGSTDYADSVKGRFTISRDNAKTTVYLQMNSLKPEDTAVYYCAAESITGYVSDFDYWGQGTQVTVSS too. low polyreactivity

Please give the result for QVQLVESGGGLVQAGGSLRLICAASGLTFYYYAMGWYRQAPGKERELVAASSTRGTSTYYADSVKGRFTISRDNSKNTVYLQMNSLKPEDTAVYYCAADSYPCGTGGDYWGQGTQVTVSS too. high polyreactivity

Please give the result for QFQLVESGGGLVQAGGSLRLSCAASGRTFKVYAMGCYRQAPGKERELVAAITGGGSTNYADSVKGRFTISRDNAKNTVYLQMNSLKAEDTAVYYCNARYYYRLVKWSRFSSYDFWGQGTQVTVSS too. low polyreactivity

Further cases:
Recorded polyreactivity (PSR sort gate) of QVQLVESGGGLVQAGGSLRLSCAASGGIFNYYVMGWYRQAPGIERELVAAISNGGSPNYADSVKGRFTISRDNAKNPVYLQMNSLKPEDTAVYYCAAHTYSELSWLVVYPYDYWGQGTQVTVSS , please. low polyreactivity

Please give the result for QVQLVESGGGLVQAGGSLRLSCAASGRIFLSYTMGWYRQAPGKERELVAAISRGGRTYYADSVKGRFTISRDNAKNTVYLQMNSLKPEDTAVYYCAKKYGRYGSLRGRTIDDYWGQGTQVTVSS too. low polyreactivity

Please give the result for QVQLVESGGGLVQAGGSLRLSCAASGRTQWRYAMGWYRQAPGKERELVASIRSGGSTYYADSVKGRFTISRDNAKNTVYLQMNSLKPEDTAVYYCAARYYWGAEAGYYYWGQGTQVTVSS too. high polyreactivity

Please give the result for QVQLGESGGGLVQAGGSLRLSCAASGSIFKWYAMGWYRQAPGKERELVAAISASGGSTYYADSVKGRFTISRDNAKNSVYLQMNSLKPEDTAVYYCNTDHYYSSRHYDYWGQGTQVTVSS too. low polyreactivity

----------
test: yeast display, Sf9 membrane polyspecificity reagent, FACS + sequencing; frameworks hold sequencing errors
measured-attribute: polyreactivity (PSR sort gate)

Recorded polyreactivity (PSR sort gate) of QVQLVESGGGLVQAGGSLRLSCAASGSTIPLYAMGWYRQAPGKERELVAAISRRGGRTYYADSVKGRFTISRDNAKNTVYLQMNSLKPEDTAVYYCATAQGSRVDYWGQGTQVTVSS , please. high polyreactivity

Please give the result for QVQHVESGGALVQAGGSLRLSCAASGSTYYIYAMGWYRHGPGKERELVARISGSGGSTYYADSVKGRFTISRDNAKNTVYLQMNSLKPEDTAVYYCAADDIYKYYQYYAFQYFRYDYWGQGTQVTVSS too. low polyreactivity

Please give the result for QVQLVESGGGLVQAGGSLRLSCAASGRTIGGYAMGWYRQAPGKERELVATITRGGRTYYADSVKGRFTISRDNAKNTVYLQMNSLKPEDTAVYYCAARYGQSRSVYNLYRFDYWGQGTQVTVSS too. high polyreactivity

Please give the result for QVQLVESGGGLVQAGGSLRLSCAASGSICYDDMGWYSQAPGKERELVAAITWSGGSTYYADSVKGRFTISRDNAKNTVYLQMNSLKPEDTAVYYCAAIFGYGSTWWRWGKDDYWGQGTQVTVSS too. high polyreactivity

Pending sequence:
Recorded polyreactivity (PSR sort gate) of QVQLVESGGGLVQAGGSLRLSCAASGRTFYINAMGWYRQAPGKEREFVAAITDGGDRTYYADSVKGRFTISRDNEKNTVYLQMNSLKPEDTAVYYCAADRGVRYDYWGQGTQVTVSS , please. low polyreactivity

----------
experiment: yeast display, Sf9 membrane polyspecificity reagent, FACS + sequencing; frameworks hold sequencing errors
measured-attribute: polyreactivity (PSR sort gate)

Previously resolved entries follow.
Recorded polyreactivity (PSR sort gate) of QVQLVESGGCLVQAGGSLRLSCAASGSINRSYAMAWYRQAPGKDWELVASISRRGGSTYYADSVKGRFTISRDNAKNSVYLQMNRLKPEDSAVYYCAAVRYNSRVSTTPSEMYYWGQGTQVTVSS , please. low polyreactivity

Please give the result for QVQLVESGGGLVQAGGSLRLSCAASGRTFYVYTMGWYRQAPGKERELVAAITSGGSTNYADSVKGRFTISRDNAKNTVYLQMNSLKPEDTAVYYCAARVSTVFKRYYYWGQGTQVTVSS too. high polyreactivity

Please give the result for QVQLVESGGGLVQAGGSLRLSCAASGRTFKQYAMGWYRQAPGKERELVAAISRTGGRTYYADSVKGRFTISRDNAKNTVYLQMNSLKPEDTAVYYCNAVYYWYKGDYWGQGTQVTVSS too. high polyreactivity

Please give the result for QVHLVESGGGLVQAGGSLRLSCAASGITFKWNDMGWYRQAPGKEREFVAAITGSTGSTFYADSVKGRFTISRDNAKNTVYLQMNSLKPEDTAVYFCAAGPWFYYWRQGTQVTVSS too. low polyreactivity

Pending sequence:
Recorded polyreactivity (PSR sort gate) of QVQLVETGGGLVQAGGSLRLSCAASGIIFYGYAMGWYRQAPGKERELVAAITYSGGSTYYADSVKGRFTISRDNAKNTVYLQMNSLKPEDTAVYYCRYDIWVWWSGAYDYWGQGTQVTVSS , please. low polyreactivity
